assay-system: Delta carbonic anhydrase (Conticribra weissflogii, UniProt Q5U9J1)
pKi: −log10 of the molar value.
Classify as follows. Reported pKi greater than or equal to 6: Yes. Reported pKi below: No.

                                    compound  assigned_class
 0  CC(=O)/N=c1/sc(S(N)(=O)=O)nn1C [METHAZOLAMIDE]             Yes
 1  Cc1ccc(S(N)(=O)=O)cc1 [P-TOLUENESULFONAMIDE]             Yes
 2                     Nc1cccc(S(N)(=O)=O)c1             Yes
 3     NS(=O)(=O)Cc1noc2ccccc12 [ZONISAMIDE]             Yes
 4                   O=C1NS(=O)(=O)c2ccccc21              No
 5  CCN[C@H]1CN(CCCOC)S(=O)(=O)c2sc(S(N)(=O)=O)cc21 [BRINZOLAMIDE]             Yes
 6  Cc1ccc(-c2cc(C(F)(F)F)nn2-c2ccc(S(N)(=O)=O)cc2)cc1             Yes
 7  NS(=O)(=O)c1ccc(S(=O)(=O)Nc2cccc3c(Cl)c[nH]c23)cc1             Yes
 8                    Cn1nc(S(N)(=O)=O)sc1=N              No
 9  NS(=O)(=O)c1cc(Cl)c(Cl)c(S(N)(=O)=O)c1 [DICHLORPHENAMIDE]             Yes
10                   Nc1ccc(S(N)(=O)=O)cc1Br             Yes
11                    NS(=O)(=O)c1ccc(CO)cc1              No
12                   Nc1ccc(S(N)(=O)=O)cc1Cl             Yes
13          Nc1nccc(Nc2ccc(S(N)(=O)=O)cc2)n1             Yes
14  Nc1ccc(S(=O)(=O)Nc2nnc(S(N)(=O)=O)s2)cc1              No
15  NS(=O)(=O)c1nnc(NS(=O)(=O)c2ccccc2)s1 [BENZOLAMIDE]             Yes
16  NS(=O)(=O)c1ccc(CCNS(=O)(=O)c2ccc([N+](=O)[O-])cc2CO)cc1              No
17  CC1(C)O[C@@H]2[C@@H](CO[C@@]3(COS(N)(=O)=O)OC(C)(C)O[C@@H]23)O1 [TOPIRAMATE]             Yes
18         NCc1ccc(S(N)(=O)=O)cc1 [MAFENIDE]             Yes
19                      Nc1nnc(S(N)(=O)=O)s1              No
20            NS(=O)(=O)c1cccc(S(N)(=O)=O)c1             Yes

----------
assay-system: Delta carbonic anhydrase (Conticribra weissflogii, UniProt Q5U9J1)
Sequence (Q5U9J1 whole entry): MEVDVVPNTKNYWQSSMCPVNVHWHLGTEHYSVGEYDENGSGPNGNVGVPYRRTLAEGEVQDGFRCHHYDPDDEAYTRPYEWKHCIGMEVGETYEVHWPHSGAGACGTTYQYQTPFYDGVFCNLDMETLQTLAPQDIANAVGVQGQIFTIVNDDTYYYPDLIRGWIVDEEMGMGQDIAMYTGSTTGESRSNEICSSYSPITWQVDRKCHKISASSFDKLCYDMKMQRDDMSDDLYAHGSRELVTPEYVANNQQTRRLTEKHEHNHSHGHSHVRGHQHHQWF
measure: Ki (µM)

>>> df
                                   molecule                              assay_system  reported
0                   NS(=O)(=O)c1ccc(CCO)cc1  Delta carbonic anhydrase (Conticribra weissflogii, UniProt Q5U9J1)       4.7
1    NS(=O)(=O)c1ccc(C(=O)O)cc1 [CARZENIDE]  Delta carbonic anhydrase (Conticribra weissflogii, UniProt Q5U9J1)     0.871
2  Nc1ccc(S(=O)(=O)Nc2ccc(S(N)(=O)=O)cc2)cc1  Delta carbonic anhydrase (Conticribra weissflogii, UniProt Q5U9J1)      3.74

----------
assay-system: Delta carbonic anhydrase (Conticribra weissflogii)
Sequence (Q5U9J1 whole entry): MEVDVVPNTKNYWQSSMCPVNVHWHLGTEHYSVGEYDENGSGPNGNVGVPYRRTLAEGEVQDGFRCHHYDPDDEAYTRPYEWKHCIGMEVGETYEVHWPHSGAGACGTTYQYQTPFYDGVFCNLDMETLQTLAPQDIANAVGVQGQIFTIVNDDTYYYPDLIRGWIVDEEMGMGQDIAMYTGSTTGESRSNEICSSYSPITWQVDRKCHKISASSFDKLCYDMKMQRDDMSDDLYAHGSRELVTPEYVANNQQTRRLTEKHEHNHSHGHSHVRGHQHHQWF
measure: Ki (µM)

>>> print(df.to_string())
                                smiles_code  units_symbol  reported
0               NS(=O)(=O)c1cc(Cl)cc(Cl)c1O            µM     0.762
1  Nc1ccc(S(=O)(=O)NCc2ccc(S(N)(=O)=O)cc2)cc1            µM     0.897
2  Nc1ccc(S(=O)(=O)NCCc2ccc(S(N)(=O)=O)cc2)cc1            µM     0.862
